Kd values by entry
target_or_test_system: T1, His-tagged CEACAM1 (human, UniProt P13688 35-428)
T1 construct: 45 kDa SPR analyte; also called CEACAM1-HIS; CEACAM1 analyte
T1 sequence: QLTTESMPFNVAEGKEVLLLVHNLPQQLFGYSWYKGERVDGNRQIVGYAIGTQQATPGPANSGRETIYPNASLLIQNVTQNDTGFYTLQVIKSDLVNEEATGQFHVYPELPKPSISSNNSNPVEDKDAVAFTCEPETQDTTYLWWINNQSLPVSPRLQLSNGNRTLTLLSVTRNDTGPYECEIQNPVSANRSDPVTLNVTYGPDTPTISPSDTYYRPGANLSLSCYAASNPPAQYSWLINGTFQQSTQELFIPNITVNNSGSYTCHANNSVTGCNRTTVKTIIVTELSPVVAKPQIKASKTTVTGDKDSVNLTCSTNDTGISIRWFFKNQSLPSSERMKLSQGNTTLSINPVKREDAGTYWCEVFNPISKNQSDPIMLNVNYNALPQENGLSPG
assay_details: SPR single-cycle, supernatant IgG captured
Just the number in nM, nothing appended.

[
  {
    "binder": "CP09E05/Vκ8 S29A (antibody, IgG4, V domains shown, IgG4 (S241P), kappa) VH: EVQLLESGGGLVQPGGSLRLSCAASGFIFSSHGMSWVRQAPGKGLEWVATISSGGTYTYYPDSVKGRFTISRDNSKNTLYLQMNSLKAEDTAMYYCARHGFDYDAAWFAYWGQGTLVTVSS VL: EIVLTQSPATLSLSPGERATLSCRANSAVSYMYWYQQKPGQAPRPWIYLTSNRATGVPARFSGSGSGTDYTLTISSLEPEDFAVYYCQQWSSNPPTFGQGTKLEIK",
    "Kd [nM]": 300
  }
]

Then there is this binder:
Task item: Request the reported Kd associated with VH1/CP08G09 (antibody, IgG4, V domains shown, IgG4 (S241P), kappa; also called Parent VH/CP08G09) VH: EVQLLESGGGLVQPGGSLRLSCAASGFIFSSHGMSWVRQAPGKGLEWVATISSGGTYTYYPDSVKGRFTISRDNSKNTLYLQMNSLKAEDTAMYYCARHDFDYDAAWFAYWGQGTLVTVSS VL: EIVLTQSPATLSLSPGERATLSCRANSAVSYMYWYQQKPGQAPRPWIYLTSNRATGVPARFSGSGSGTDYTLTISSLEPEDFAVYYCQQWTAFPPTFGQGTKLEIK
Reply: 480
